src = patent US20160347750A1

Please go through the items and note down their IC50.
System: Kasumi-1
Test: Cell line IC50, Kasumi-1
Format: cell-based
Details: Homo sapiens; Kasumi-1 cell line
Respond with the bare value in nM.

# IC50 (compound: CC[C@@H]1C(=O)N(C)c2cnc(Nc3ccc(C(=O)NC4CCN(C)CC4)cc3OC)nc2N1C1CCCC1 [drawing 214] ) is 9.9

# IC50 (compound: C[C@@H](Oc1cc(-n2cnc3ccc(CN4CCN(C)CC4)cc32)sc1C(N)=O)c1ccccc1C(F)(F)F [reference compound] ) is 7.8

# IC50 (compound: CC[C@@H]1C(=O)Nc2cnc(Nc3ccc(C(=O)NC4CCN(C)CC4)cc3OC)nc2N1C1CCCC1 ) is 1470

----------
System: 797
Assay: Cellular assay, cell viability by ATPlite, 797 cells
Type: cell-based
Settings: 797 cell line, Table 2; read-out: 797 IC50
reportedEndpoint: IC50

Let me check: CC[C@@H]1C(=O)N(C)c2cnc(N(C)c3ccc(C(=O)NC4CCN(C)CC4)cc3OC)nc2N1C1CCCC1 , system 797, measured IC50 is 0.342 µM

Let me check: COc1cc(C(=O)NC2CCN(C)CC2)ccc1Nc1ccc2c(n1)N(C1CCCC1)[C@H](C)C(=O)N2C , system 797, measured IC50 is 0.181 µM

Let me check: CC[C@@H]1C(=O)Nc2cnc(Nc3ccc(C(=O)NC4CCN(C)CC4)cc3OC)nc2N1C1CCCC1 , system 797, measured IC50 is 0.42 µM

Let me check: CC[C@@H]1C(=O)N(C)c2cnc(Oc3ccc(C(=O)NC4CCN(C)CC4)cc3OC)nc2N1C1CCCC1 , system 797, measured IC50 is 0.425 µM

Let me check: CC[C@@H]1C(=O)N(C)c2cnc(N3CCc4cc(C(=O)NC5CCN(C)CC5)ccc43)nc2N1C1CCCC1 , system 797, measured IC50 is 0.064 µM

Let me check: CC[C@@H]1C(=O)N(C)c2ccc(N3CCc4cc(C(=O)NC5CCN(C)CC5)ccc43)nc2N1C1CCCC1 , system 797, measured IC50 is 0.937 µM

Let me check: Cc1sc2c(c1C)C(c1ccc(Cl)cc1)=N[C@@H](CC(=O)OC(C)(C)C)c1nnc(C)n1-2 [JQ1, reference compound] , system 797, measured IC50 is 0.092 µM

Let me check: CC[C@@H]1C(=O)N(C)c2cnc(N3CCOc4cc(C(=O)NC5CCN(C)CC5)ccc43)nc2N1C1CCCC1 , system 797, measured IC50 is 1.94 µM

----------
System: Kasumi-1
Assay: Cell line IC50, Kasumi-1
Format: cell-based
Conditions: Homo sapiens; Kasumi-1 cell line
reportedEndpoint: pIC50
Please express pIC50 as -log10 of the molar concentration.

# pIC50 (molecule: CC[C@@H]1C(=O)N(C)c2cnc(Oc3ccc(C(=O)NC4CCN(C)CC4)cc3OC)nc2N1C1CCCC1 ) is 5.89

# pIC50 (molecule: CC[C@@H]1C(=O)N(CC)c2cnc(Nc3ccc(C(=O)NC4CCN(C)CC4)cc3OC)nc2N1C1CCCC1 ) is 6.62

# pIC50 (molecule: CC[C@@H]1C(=O)N(C)c2cnc(N(C)c3ccc(C(=O)NC4CCN(C)CC4)cc3OC)nc2N1C1CCCC1 ) is 6.47

# pIC50 (molecule: CC[C@@H]1C(=O)N(C)c2cnc(Nc3ccc(C(=O)NC4CCN(C)CC4)cc3OC3CCCC3)nc2N1C1CCCC1 ) is 7.13
